Target: T1, human PRLR on cells (human, UniProt P16471 25-622)
T1 sequence: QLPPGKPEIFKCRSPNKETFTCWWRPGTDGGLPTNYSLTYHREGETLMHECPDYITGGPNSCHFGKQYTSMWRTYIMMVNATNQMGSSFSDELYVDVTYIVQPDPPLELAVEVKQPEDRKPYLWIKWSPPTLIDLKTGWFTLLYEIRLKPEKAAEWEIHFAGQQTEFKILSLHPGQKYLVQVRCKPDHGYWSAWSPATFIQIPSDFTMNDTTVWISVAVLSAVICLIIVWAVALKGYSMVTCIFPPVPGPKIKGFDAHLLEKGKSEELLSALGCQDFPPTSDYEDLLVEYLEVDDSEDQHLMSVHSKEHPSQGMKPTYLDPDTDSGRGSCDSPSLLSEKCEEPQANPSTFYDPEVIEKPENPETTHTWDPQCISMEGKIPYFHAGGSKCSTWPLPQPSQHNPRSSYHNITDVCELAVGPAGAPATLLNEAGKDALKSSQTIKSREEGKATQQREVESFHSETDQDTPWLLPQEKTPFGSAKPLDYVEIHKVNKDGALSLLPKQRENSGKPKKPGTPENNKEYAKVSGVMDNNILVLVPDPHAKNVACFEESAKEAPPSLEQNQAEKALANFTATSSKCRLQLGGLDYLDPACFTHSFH
Assay: cell-based or functional assay
Measured Baf3-hPRLR proliferation IC50, listed per entry for reference.

BINDER: chAb7 (antibody, human IgG1, kappa, V domains shown, chimeric, murine variable and human G1/kappa constant regions) VH: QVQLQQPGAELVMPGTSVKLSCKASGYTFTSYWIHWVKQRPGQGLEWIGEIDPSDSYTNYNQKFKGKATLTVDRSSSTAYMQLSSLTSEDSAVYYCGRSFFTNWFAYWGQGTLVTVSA VL: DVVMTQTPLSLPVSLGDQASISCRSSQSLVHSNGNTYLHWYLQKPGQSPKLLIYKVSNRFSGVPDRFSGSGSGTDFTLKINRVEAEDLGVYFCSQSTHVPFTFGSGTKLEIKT
MODIFIER: =
Baf3-hPRLR proliferation IC50 (µg/mL): 1.2

BINDER: Ab27 (antibody, human IgG1, kappa, V domains shown, humanized from Ab5; G1; also called Ab2 HC.1 and Ab2 LC.1a) VH: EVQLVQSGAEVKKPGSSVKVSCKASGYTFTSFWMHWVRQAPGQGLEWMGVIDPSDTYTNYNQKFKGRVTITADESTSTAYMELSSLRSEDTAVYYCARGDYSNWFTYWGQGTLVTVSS VL: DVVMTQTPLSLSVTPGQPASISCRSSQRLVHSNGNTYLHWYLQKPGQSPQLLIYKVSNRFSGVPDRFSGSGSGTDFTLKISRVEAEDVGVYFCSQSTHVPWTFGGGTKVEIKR
MODIFIER: =
Baf3-hPRLR proliferation IC50 (µg/mL): 0.16

BINDER: Ab23 (antibody, human IgG1, kappa, V domains shown) VH: EVQLVQSGAEVKKPGSSVKVSCKASGGTFTTYWMHWVRQAPGQGLEWIGEIDPSDSYSNYAQKFQGRVTITVDKSTSTAYMELSSLRSEDTAVYYCARNGGLGPAWFSYWGQGTLVTVSS VL: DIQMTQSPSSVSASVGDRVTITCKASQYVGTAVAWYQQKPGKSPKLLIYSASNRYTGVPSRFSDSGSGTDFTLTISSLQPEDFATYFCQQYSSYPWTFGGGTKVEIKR
MODIFIER: >
Baf3-hPRLR proliferation IC50 (µg/mL): 30

BINDER: Ab33 (antibody, human IgG1, kappa, V domains shown) VH: EVQLVQSGAEVKKPGSSVKVSCKASGGTFTSFWMHWVRQAPGQGLEWIGVIDPSDTYTNYAQKFQGRVTITVDESTSTAYMELSSLRSEDTAVYYCARGDYSNWFTYWGQGTLVTVSS VL: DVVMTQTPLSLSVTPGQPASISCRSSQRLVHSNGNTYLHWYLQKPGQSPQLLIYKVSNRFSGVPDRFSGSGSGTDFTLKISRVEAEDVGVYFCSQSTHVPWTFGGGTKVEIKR
MODIFIER: >
Baf3-hPRLR proliferation IC50 (µg/mL): 30

BINDER: Ab39 (antibody, human IgG1, kappa, V domains shown, humanized from Ab7; G1; also called Ab4 HC.1a and Ab4 LC.1a) VH: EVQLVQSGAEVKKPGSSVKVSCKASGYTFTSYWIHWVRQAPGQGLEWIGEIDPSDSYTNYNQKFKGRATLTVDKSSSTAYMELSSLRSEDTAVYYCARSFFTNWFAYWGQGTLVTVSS VL: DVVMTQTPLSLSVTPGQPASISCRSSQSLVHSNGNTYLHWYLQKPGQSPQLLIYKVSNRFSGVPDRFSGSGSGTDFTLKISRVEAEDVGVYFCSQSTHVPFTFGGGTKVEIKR
MODIFIER: =
Baf3-hPRLR proliferation IC50 (µg/mL): 0.27

Reference source for all entries: patent US20170022281A1
